- Tested on: SF-268
- test: NCI tumour cell line growth inhibition, 48 h
Calls of active or inactive are those of the source. Rule as the data show it: active = GI50 up to about 1.1 µM and inactive = higher.
For each record, write down the corresponding GI50.

Input line: Which measured GI50 belongs to Cc1ccc(/N=C/C=C(\Nc2ccc(C)cc2)c2ccc3ccccc3c2)cc1 , tested on SF-268?
Output line: 2.19 µM (inactive)

Input line: Would you mind doing CC(=O)OCCOc1cc2c([nH]c3ccccc32)c(C)c2cccc1-2 as well?
Output line: 2.47 µM (inactive)

Input line: Would you mind doing Cc1nc(C(N)=S)sc1C(=O)CC(=O)C(=O)Nc1cccc(Cl)c1C as well?
Output line: > 100 µM (inactive)

Input line: Would you mind doing COC(=O)[C@@H]1C[C@H]([Se]c2ccccc2)CN1C(=O)OCc1ccccc1 as well?
Output line: 47.5 µM (inactive)

Input line: Would you mind doing CC1(C)CCCC2(C)[C@@H]1CC[C@]13C[C@](C)(CC[C@@H]21)[C@@H]3CO (stereo not given in full) as well?
Output line: > 100 µM (inactive)
